Sourced from PubChem BioAssay AID1159580

Field: normalized growth. Provide a value for each of the molecules that follow.
- protocol.details: chemical genetic growth profiling, strain panel (AID 1159580);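 also: tested at 20 µM; growth read once vehicle control cultures reached saturation at 30 °C; 1 = growth at the plate median or of vehicle wells; lower values mean less growth of the strain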
- study.conditions: S. cerevisiae deletion strains, growth OD, locus YJR075W, strain HOC1, active compounds read low
The whole screen tested about 5,500 compounds, of which about 2,000 (36%) were called active. Roughly 18% stayed inconclusive and do not appear here. This is one part of the list.

Output normalized growth of Cc1nn(-c2ccccc2)nc1-c1nnc(-c2ccc(Cl)cc2)o1 1 (inactive)

Return normalized growth for the following molecule: COc1ccc(C(=O)c2sc(Nc3ccccc3)nc2-c2ccccc2)cc1 0.975 (inactive)

Given the molecule COc1ccc2c(=O)c(OC)c(-c3ccccc3)oc2c1 , write its reported normalized growth. 0.89 (inactive)

For the molecule CN(C)c1ccc(-c2n[nH]c(=O)c3ccccc23)cc1[N+](=O)[O-] , report normalized growth. 0.99 (inactive)

State, in one line, measured normalized growth of COc1ccc2oc3ccccc3c(=O)c2c1 0.885 (inactive)

Tell me its normalized growth given FC(F)(F)Oc1ccccc1-c1nnc(-c2ccc(Cl)cc2)o1 as the entry. 0.87 (active)

Fill in normalized growth for record O=C1NN(c2ccccc2)C(=S)Nc2ccccc21 0.994 (inactive)

Given the molecule C[C@@H](Oc1ccc(Oc2cnc3ccc(Cl)cc3n2)cc1)C(=O)O , write its reported normalized growth. 1 (inactive)

// fetch normalized growth given entry COc1ccc2oc(-c3ccccc3)c(OC)c(=O)c2c1 0.844 (active)

Identify the reported normalized growth for the following entry. CC(C)c1ccc2c(c1)c(SC(C)(C)C)c(CC(C)(C)C(=O)O)n2Cc1ccc(Cl)cc1 1.02 (inactive)

Given S=C1NC2(CCCCC2)NN1c1ccccc1 , respond with its normalized growth. 0.908 (inactive)

---

- protocol.details: chemical genetic growth profiling, strain panel (AID 1159580);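 also: tested at 20 µM; growth read once vehicle control cultures reached saturation at 30 °C; 1 = growth at the plate median or of vehicle wells; lower values mean less growth of the strain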
- study.conditions: S. cerevisiae deletion strains, growth OD, locus YHR030C, strain SLT2, active compounds read low
About 2,000 (36%) of roughly 5,500 compounds were called active. Roughly 18% stayed inconclusive and do not appear here. Some of the results follow.
Task for the reader: assign each of the following compounds its reported normalized growth.
Lab note: jot the number down without any unit.

Specify measured normalized growth for C/C(=N/NC(=S)NCC(C)(C)C)c1cc(F)cc(Cl)c1O . 0.681

Given NC(=O)CS(=O)C(c1ccccc1)c1ccccc1 (stereo not drawn) , respond with its normalized growth. 1.04

Provide only the value of recorded normalized growth for N#CC(C#N)=Cc1c(-c2ccccc2Cl)[nH]c2ccccc12 0.654

Provide measured normalized growth value, entry: CNc1ccc(C(=O)CC(O)CCC(C)C2OC(=O)CC(O)CC(=O)CC(O)CC(O)CC(O)CC(O)CC3(O)CC(O)C(C(=O)OC)C(CC(OC4OC(C)C(O)C(N)C4O)/C=C/C=C/C=C/C=C/C=C/C=C/C=C/C2C)O3)cc1 (stereo not drawn) 0.0491

Respond only with normalized growth recorded for FC(F)(F)c1cc(NC(=S)SCCSC(=S)Nc2cc(C(F)(F)F)cc(C(F)(F)F)c2)cc(C(F)(F)F)c1 0.984

Indicate its recorded normalized growth; the compound in question is C=C1C(=O)[C@]23[C@H](O)[C@H]1CC[C@H]2[C@@]12CO[C@]3(O)[C@H](O)[C@@H]1C(C)(C)CC[C@@H]2O 1.01

Read off the recorded normalized growth for N/C(=N/O)c1ccc(Oc2ccc(C3SCCS3)cc2)c([N+](=O)[O-])c1 0.874

Retrieve normalized growth measured for N/C(=N/OC(=O)Nc1ccccc1)c1ccc(C2SCCS2)cc1 and print it. 0.343
